# key: entry, value: relative viability
Tested on: NCI-H1944
experimental_details: relative viability (nuclei count vs DMSO), 5 days (fraction); higher = more cells survive
measurement_setup: first compound 0.01 µM
property_name: relative viability

1) Cc1cn(-c2cc(NC(=O)c3ccc(C)c(Nc4nccc(-c5cccnc5)n4)c3)cc(C(F)(F)F)c2)cn1 [Nilotinib] + NC(=O)Nc1cc(-c2cccc(F)c2)sc1C(=O)N[C@H]1CCCNC1 [AZD7762] (partner 0.2 µM)    0.41
2) Cc1cn(-c2cc(NC(=O)c3ccc(C)c(Nc4nccc(-c5cccnc5)n4)c3)cc(C(F)(F)F)c2)cn1 [Nilotinib] + Nc1nc2[nH]cc(CCc3ccc(C(=O)N[C@@H](CCC(=O)O)C(=O)O)cc3)c2c(=O)[nH]1 [Pemetrexed] (partner 0.2 µM)    0.566
3) Cc1cn(-c2cc(NC(=O)c3ccc(C)c(Nc4nccc(-c5cccnc5)n4)c3)cc(C(F)(F)F)c2)cn1 [Nilotinib] + CS(=O)(=O)N1CCN(Cc2cc3nc(-c4cccc5[nH]ncc45)nc(N4CCOCC4)c3s2)CC1 [Pictilisib] (partner 1 µM)    0.358
4) Cc1cn(-c2cc(NC(=O)c3ccc(C)c(Nc4nccc(-c5cccnc5)n4)c3)cc(C(F)(F)F)c2)cn1 [Nilotinib] + CC(=O)Nc1cccc(-n2c(=O)n(C3CC3)c(=O)c3c(Nc4ccc(I)cc4F)n(C)c(=O)c(C)c32)c1 [Trametinib] (partner 0.02 µM)    0.39
5) Cc1cn(-c2cc(NC(=O)c3ccc(C)c(Nc4nccc(-c5cccnc5)n4)c3)cc(C(F)(F)F)c2)cn1 [Nilotinib] + Cc1cc(Nc2cc(N3CCN(C)CC3)nc(Sc3ccc(NC(=O)C4CC4)cc3)n2)n[nH]1 [Tozasertib] (partner 0.1 µM)    0.248

---

# key: entry, value: relative viability
Tested on: COR-L 105
experimental_details: relative viability (nuclei count vs DMSO), 5 days (fraction); higher = more cells survive
measurement_setup: first compound 0.02 µM
property_name: relative viability

1. CCNC(=O)c1noc(-c2cc(C(C)C)c(O)cc2O)c1-c1ccc(CN2CCOCC2)cc1 [Luminespib] + C[C@]1(O)C[C@@H](c2nc(-c3ccc4ccc(-c5ccccc5)nc4c3)c3c(N)nccn32)C1 [Linsitinib] (partner 1 µM)    0.991
2. CCNC(=O)c1noc(-c2cc(C(C)C)c(O)cc2O)c1-c1ccc(CN2CCOCC2)cc1 [Luminespib] + O=C(CCCCCCC(=O)Nc1ccccc1)NO [Vorinostat] (partner 1 µM)    0.959
3. CCNC(=O)c1noc(-c2cc(C(C)C)c(O)cc2O)c1-c1ccc(CN2CCOCC2)cc1 [Luminespib] + C[C@@H](Oc1cc(-c2cnn(C3CCNCC3)c2)cnc1N)c1c(Cl)ccc(F)c1Cl [Crizotinib] (partner 1 µM)    0.976
4. CCNC(=O)c1noc(-c2cc(C(C)C)c(O)cc2O)c1-c1ccc(CN2CCOCC2)cc1 [Luminespib] + CC(=O)Nc1cccc(-n2c(=O)n(C3CC3)c(=O)c3c(Nc4ccc(I)cc4F)n(C)c(=O)c(C)c32)c1 [Trametinib] (partner 0.02 µM)    0.384

---

System: LCLC-97TM1
experimental_details: relative viability (nuclei count vs DMSO), 5 days (fraction); higher = more cells survive
measurement_setup: first compound 0.1 µM
Just a reminder that ties go to criterion not met: only relative viability strictly below 0.3 counts as criterion met.

1. Cc1cn(-c2cc(NC(=O)c3ccc(C)c(Nc4nccc(-c5cccnc5)n4)c3)cc(C(F)(F)F)c2)cn1 [Nilotinib] + C[C@]1(O)C[C@@H](c2nc(-c3ccc4ccc(-c5ccccc5)nc4c3)c3c(N)nccn32)C1 [Linsitinib] (partner 1 µM)    criterion met
2. Cc1cn(-c2cc(NC(=O)c3ccc(C)c(Nc4nccc(-c5cccnc5)n4)c3)cc(C(F)(F)F)c2)cn1 [Nilotinib] + COc1cccc2cc(-c3nc([C@H]4CC[C@H](C(=O)O)CC4)n4ncnc(N)c34)[nH]c12 [OSI-027] (partner 0.5 µM)    criterion not met
3. Cc1cn(-c2cc(NC(=O)c3ccc(C)c(Nc4nccc(-c5cccnc5)n4)c3)cc(C(F)(F)F)c2)cn1 [Nilotinib] + C[C@@H](Oc1cc(-c2cnn(C3CCNCC3)c2)cnc1N)c1c(Cl)ccc(F)c1Cl [Crizotinib] (partner 1 µM)    criterion not met
4. Cc1cn(-c2cc(NC(=O)c3ccc(C)c(Nc4nccc(-c5cccnc5)n4)c3)cc(C(F)(F)F)c2)cn1 [Nilotinib] + O=C(c1cc(Cc2n[nH]c(=O)c3ccccc23)ccc1F)N1CCN(C(=O)C2CC2)CC1 [Olaparib] (partner 8 µM)    criterion not met
5. Cc1cn(-c2cc(NC(=O)c3ccc(C)c(Nc4nccc(-c5cccnc5)n4)c3)cc(C(F)(F)F)c2)cn1 [Nilotinib] + Nc1nc2[nH]cc(CCc3ccc(C(=O)N[C@@H](CCC(=O)O)C(=O)O)cc3)c2c(=O)[nH]1 [Pemetrexed] (partner 0.2 µM)    criterion met
6. Cc1cn(-c2cc(NC(=O)c3ccc(C)c(Nc4nccc(-c5cccnc5)n4)c3)cc(C(F)(F)F)c2)cn1 [Nilotinib] + CS(=O)(=O)N1CCN(Cc2cc3nc(-c4cccc5[nH]ncc45)nc(N4CCOCC4)c3s2)CC1 [Pictilisib] (partner 1 µM)    criterion met
